- experiment.description: Pharmacokinetics of tramadol and O-desmethyl tramadol in SD rats with or without crizotinib
- condition.description: male, Sprague-Dawley, rat, serum, po, 20 mg/kg, Cmax, Group A: single oral 20 mg/kg tramadol alone
- Text: Ultra-performance liquid chromatography-tandem mass spectrometry (UPLC-MS/MS) was utilized to measure the concentration of both tramadol and O-desmethyl tramadol. Separation was achieved using a Waters Acquity UPLC BEH C18 column, with dimensions of 2.1 mm × 50 mm and 1.7-µm particle size (Waters Corp., Milford, MA, USA), and quantitation was completed using a Waters XEVO TQD triple quadruple mass spectrometer. […]
experimental.readout: Cmax (ng/mL)

{"columns": ["molecule", "experimental.readout", "observed.result"],
 "data": [
  ["COc1cccc(C2(O)CCCCC2CN(C)C)c1 (centres unmarked) [Tramadol, tramadol]", "Cmax", 202],
  ["CN(C)C[C@H]1CCCC[C@]1(O)c1cccc(O)c1 [O-desmethyl tramadol]", "Cmax", 229]
]}

* * *

Property: AUC(0-inf); scope: individual compounds
- experiment.description: Pharmacokinetics of tramadol and O-desmethyl tramadol in SD rats with or without crizotinib
- condition.description: male, Sprague-Dawley, rat, serum, po, 20 mg/kg, AUC(0−∞), Group A: single oral 20 mg/kg tramadol alone

{"columns": ["compound", "AUC(0-inf) / ng·h/mL"],
 "data": [
  ["CN(C)C[C@H]1CCCC[C@]1(O)c1cccc(O)c1 [O-desmethyl tramadol]", 937],
  ["COc1cccc(C2(O)CCCCC2CN(C)C)c1 (centres unmarked) [Tramadol, tramadol]", 786]
]}

* * *

- System: tramadol metabolism in human liver microsomes
- experiment.description: Liver microsomal incubation assay: inhibition of tramadol metabolism in HLM
- Type: in vitro ADME
- condition.description: human, human liver microsomes, pH 7.4, probe tramadol 100 µM, tramadol 100 µM, crizotinib 0.01-100 µM

{"columns": ["smiles.text", "IC50 at 30 min (µM)"],
 "data": [
  ["C[C@@H](Oc1cc(-c2cnn(C3CCNCC3)c2)cnc1N)c1c(Cl)ccc(F)c1Cl", 11.9]
]}

* * *

Parameter: Vd/F. Scope: all listed entries.
- experiment.description: Pharmacokinetics of tramadol and O-desmethyl tramadol in SD rats with or without crizotinib
- condition.description: male, Sprague-Dawley, rat, serum, po, 20 mg/kg, Vz/F, Group D: crizotinib 45 mg/kg for 7 days, then single 20 mg/kg tramadol
experimental.readout: Vd/F (L/kg)

{"columns": ["compound", "experimental.readout", "unit", "observed.result"],
 "data": [
  ["COc1cccc(C2(O)CCCCC2CN(C)C)c1 (centres unmarked) [Tramadol, tramadol]", "Vd/F", "L/kg", 51.4],
  ["CN(C)C[C@H]1CCCC[C@]1(O)c1cccc(O)c1 [O-desmethyl tramadol]", "Vd/F", "L/kg", 94.7]
]}

* * *

Items are presented alongside their recorded AUC(0-t).
- experiment.description: Pharmacokinetics of tramadol and O-desmethyl tramadol in SD rats with or without crizotinib
- condition.description: male, Sprague-Dawley, rat, serum, po, 20 mg/kg, AUC(0−t), Group C: 0.5% CMC-Na for 7 days, then single 20 mg/kg tramadol

{"columns": ["compound", "AUC(0-t) / ng·h/mL"],
 "data": [
  ["COc1cccc(C2(O)CCCCC2CN(C)C)c1 (centres unmarked)", 777],
  ["CN(C)C[C@H]1CCCC[C@]1(O)c1cccc(O)c1", 1170]
]}
